The values you see were collected from paper PMC11129182.

- target system: PARK7 (Homo sapiens, UniProt Q99497)
- Sequence (Q99497 whole entry): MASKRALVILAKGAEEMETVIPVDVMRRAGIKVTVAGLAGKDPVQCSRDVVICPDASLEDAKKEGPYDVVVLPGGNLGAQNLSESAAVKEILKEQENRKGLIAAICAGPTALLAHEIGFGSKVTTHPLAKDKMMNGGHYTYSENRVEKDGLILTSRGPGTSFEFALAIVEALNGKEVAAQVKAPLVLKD
- test details: Hit validation and pure-compound testing in the PARK7 FP assay with JYQ-107
- Type: biochemical
- condition summary: crude compounds, 0.5 µM; read-out: % Inhibition 0.5 µM
Assign a class from recorded inhibition at 0.5 µM; defined classes: b0: < 70%; b1: ≥ 70% and < 80%; b2: ≥ 80%

smiles repr: N#CN1CC[C@@H](C(=O)Nc2nc3c(s2)CN(C(=O)c2cc(C4CCCCC4)[nH]n2)CC3)C1
class: b1
--
smiles repr: N#CN1CC[C@@H](C(=O)Nc2nc3c(s2)CN(C(=O)c2cnn(-c4ccccc4)n2)CC3)C1
class: b0
--
smiles repr: N#CN1CC[C@@H](C(=O)Nc2nc3c(s2)CN(C(=O)c2cnn(-c4ccc(Br)cc4)c2)CC3)C1
class: b2
--
smiles repr: N#CN1CC[C@@H](C(=O)Nc2nc3c(s2)CN(C(=O)c2ccc(Cl)c(N4CCCS4(=O)=O)c2)CC3)C1
class: b2
--
smiles repr: CCC1(Cn2cc(C(=O)N3CCc4nc(NC(=O)[C@@H]5CCN(C#N)C5)sc4C3)nn2)COC1
class: b1
--
smiles repr: Cc1c[nH]c(=O)n1-c1cccc(C(=O)N2CCc3nc(NC(=O)[C@@H]4CCN(C#N)C4)sc3C2)c1
class: b0
--
smiles repr: Cn1cc(-c2cc(C(=O)N3CCc4nc(NC(=O)[C@@H]5CCN(C#N)C5)sc4C3)n[nH]2)cn1
class: b1
--
smiles repr: N#CN1CC[C@@H](C(=O)Nc2nc3c(s2)CN(C(=O)c2cc(-n4cccc4)ccn2)CC3)C1
class: b2
--
smiles repr: N#CN1CC[C@@H](C(=O)Nc2nc3c(s2)CN(C(=O)C2CN(S(=O)(=O)C4CC4)C2)CC3)C1
class: b0

###

- target system: PARK7 (Homo sapiens, UniProt Q99497)
- test details: Hit validation and pure-compound testing in the PARK7 FP assay with JYQ-107
- Type: biochemical
- condition summary: crude compounds, 1 µM

compound: Cc1ccc(-c2cc(C(=O)N3CCc4nc(NC(=O)[C@@H]5CCN(C#N)C5)sc4C3)n[nH]2)s1 [Compound 165]
value unit: %
inhibition at 1 µM: 95.6

compound: N#CN1CC[C@@H](C(=O)Nc2nc3c(s2)CN(C(=O)c2cc(-c4ccc(Cl)s4)[nH]n2)CC3)C1 [Compound 64]
value unit: %
inhibition at 1 µM: 89.5

compound: N#CN1CC[C@@H](C(=O)Nc2nc3c(s2)CN(C(=O)c2ccc(-c4ccccn4)s2)CC3)C1 [Compound 258]
value unit: %
inhibition at 1 µM: 91

compound: N#CN1CC[C@@H](C(=O)Nc2nc3c(s2)CN(C(=O)c2cnn(-c4ccccc4)n2)CC3)C1 [Compound 295]
value unit: %
inhibition at 1 µM: 88

compound: N#CN1CC[C@@H](C(=O)Nc2nc3c(s2)CN(C(=O)c2cnc(-c4cccs4)s2)CC3)C1 [Compound 108]
value unit: %
inhibition at 1 µM: 98.5

compound: N#CN1CC[C@@H](C(=O)Nc2nc3c(s2)CN(C(=O)c2cnn(-c4cccc(Br)c4)c2)CC3)C1 [Compound 156]
value unit: %
inhibition at 1 µM: 94.7

compound: N#CN1CC[C@@H](C(=O)Nc2nc3c(s2)CN(C(=O)c2cccc(Cn4ccnc4)c2)CC3)C1 [Compound 215]
value unit: %
inhibition at 1 µM: 93.3

compound: N#CN1CC[C@@H](C(=O)Nc2nc3c(s2)CN(C(=O)c2cccc(-c4ncon4)c2)CC3)C1 [Compound 381]
value unit: %
inhibition at 1 µM: 97.7

compound: N#CN1CC[C@@H](C(=O)Nc2nc3c(s2)CN(C(=O)c2cccc(-c4ncn[nH]4)c2)CC3)C1 [Compound 131]
value unit: %
inhibition at 1 µM: 96.9

compound: N#CN1CC[C@@H](C(=O)Nc2nc3c(s2)CN(C(=O)c2cccnc2Oc2ccc(Cl)cc2Cl)CC3)C1 [Compound 345]
value unit: %
inhibition at 1 µM: 95

compound: N#CN1CC[C@@H](C(=O)Nc2nc3c(s2)CN(C(=O)c2cccc(S(=O)(=O)NCc4cccs4)c2)CC3)C1 [Compound 11]
value unit: %
inhibition at 1 µM: 93.6

compound: Cc1c[nH]c(=O)n1-c1cccc(C(=O)N2CCc3nc(NC(=O)[C@@H]4CCN(C#N)C4)sc3C2)c1 [Compound 315]
value unit: %
inhibition at 1 µM: 91.2

compound: N#CN1CC[C@@H](C(=O)Nc2nc3c(s2)CN(C(=O)c2ccc(-c4ccccn4)nc2)CC3)C1 [Compound 274]
value unit: %
inhibition at 1 µM: 91.8

compound: N#CN1CC[C@@H](C(=O)Nc2nc3c(s2)CN(C(=O)c2cc(-n4cccc4)ccn2)CC3)C1 [Compound 279]
value unit: %
inhibition at 1 µM: 96.8

compound: Cc1ccc([C@@H]2C[C@H]2C(=O)N2CCc3nc(NC(=O)[C@@H]4CCN(C#N)C4)sc3C2)s1 [Compound 188]
value unit: %
inhibition at 1 µM: 94.5

compound: CCC1(Cn2cc(C(=O)N3CCc4nc(NC(=O)[C@@H]5CCN(C#N)C5)sc4C3)nn2)COC1 [Compound 83]
value unit: %
inhibition at 1 µM: 92.7

compound: N#CN1CC[C@@H](C(=O)Nc2nc3c(s2)CN(C(=O)c2csc(C4CC4)n2)CC3)C1 [Compound 152]
value unit: %
inhibition at 1 µM: 89.3

compound: Cn1cc(-c2cc(C(=O)N3CCc4nc(NC(=O)[C@@H]5CCN(C#N)C5)sc4C3)n[nH]2)cn1 [Compound 337]
value unit: %
inhibition at 1 µM: 92.5

compound: Cc1csc(-c2cccc(C(=O)N3CCc4nc(NC(=O)[C@@H]5CCN(C#N)C5)sc4C3)c2)n1 [Compound 334]
value unit: %
inhibition at 1 µM: 97.3

compound: N#CN1CC[C@@H](C(=O)Nc2nc3c(s2)CN(C(=O)c2cc(S(=O)(=O)NCCCN4CCCC4=O)ccc2Cl)CC3)C1 [Compound 146]
value unit: %
inhibition at 1 µM: 90.7

compound: N#CN1CC[C@@H](C(=O)Nc2nc3c(s2)CN(C(=O)c2cccc(Oc4ccc(Cl)cc4)n2)CC3)C1 [Compound 312]
value unit: %
inhibition at 1 µM: 89.5

compound: N#CN1CC[C@@H](C(=O)Nc2nc3c(s2)CN(C(=O)c2ccc(=O)n(C4CC4)c2)CC3)C1 [Compound 369]
value unit: %
inhibition at 1 µM: 94.1

compound: N#CN1CC[C@@H](C(=O)Nc2nc3c(s2)CN(C(=O)C2CC(=O)N(C4CCCCCC4)C2)CC3)C1 (some centres unmarked) [Compound 163]
value unit: %
inhibition at 1 µM: 90.3

compound: COc1ccc(C(=O)N2CCc3nc(NC(=O)[C@@H]4CCN(C#N)C4)sc3C2)cc1S(=O)(=O)N1CCCCCC1 [Compound 133]
value unit: %
inhibition at 1 µM: 98.8

compound: CC(C)c1nc(Cn2cc(C(=O)N3CCc4nc(NC(=O)[C@@H]5CCN(C#N)C5)sc4C3)ccc2=O)cs1 [Compound 149]
value unit: %
inhibition at 1 µM: 89.6

compound: N#CN1CC[C@@H](C(=O)Nc2nc3c(s2)CN(C(=O)c2cn(CCc4ccccc4)nn2)CC3)C1 [Compound 76]
value unit: %
inhibition at 1 µM: 92.1

compound: N#CN1CC[C@@H](C(=O)Nc2nc3c(s2)CN(C(=O)c2ccc(Oc4cccc(Cl)c4)cn2)CC3)C1 [Compound 268]
value unit: %
inhibition at 1 µM: 82.8

compound: Cc1ccc(-c2cc(C(=O)N3CCc4nc(NC(=O)[C@@H]5CCN(C#N)C5)sc4C3)[nH]n2)o1 [Compound 121]
value unit: %
inhibition at 1 µM: 93.8

compound: COc1ccc(C(=O)N2CCc3nc(NC(=O)[C@@H]4CCN(C#N)C4)sc3C2)cc1S(=O)(=O)NCCCN1CCOCC1 [Compound 242]
value unit: %
inhibition at 1 µM: 91.4
